- Tested on: S180 tumor
- Test name: Biodistribution in tumor-bearing mice
- Type: in vivo
- Protocol conditions: 30 min, i.v., mice bearing S180 tumor, n=5, mean ± SD
- Protocol: The mice bearing S180 tumors were injected intravenously via the tail vein respectively with the solutions (0.1 mL, 370 kBq) containing the radioactive drugs of Examples 1-4. […] After dissection, the heart, liver, lung, kidney, spleen, bone, muscle, small intestine, blood and tumors were harvested, and measured for radioactivity with the γ-counter. The biodistribution individual organs or tissues was expressed as the percentage of the injected dose per gram of organ or tissue (% ID/g).
Measured Tumor accompanies every entry in the list below.
Give just the number in % ID/g; leave the unit off.

Worked cases, Tumor given:
Compound	Result units	Tumor
O=C(NC1C(O)OC(CO)C(O)C1O)c1cccc([N+]#[C][99Tc+]([C]#[N+]c2cccc(C(=O)NC3C(O)OC(CO)C(O)C3O)c2)([C]#[N+]c2cccc(C(=O)NC3C(O)OC(CO)C(O)C3O)c2)([C]#[N+]c2cccc(C(=O)NC3C(O)OC(CO)C(O)C3O)c2)([C]#[N+]c2cccc(C(=O)NC3C(O)OC(CO)C(O)C3O)c2)[C]#[N+]c2cccc(C(=O)NC3C(O)OC(CO)C(O)C3O)c2)c1 (stereo not shown) [^99mTc-3-CNBzDG]	% ID/g	2.51
O=C(Cc1ccc(C[N+]#[C][99Tc+]([C]#[N+]Cc2ccc(CC(=O)NC3C(O)OC(CO)C(O)C3O)cc2)([C]#[N+]Cc2ccc(CC(=O)NC3C(O)OC(CO)C(O)C3O)cc2)([C]#[N+]Cc2ccc(CC(=O)NC3C(O)OC(CO)C(O)C3O)cc2)([C]#[N+]Cc2ccc(CC(=O)NC3C(O)OC(CO)C(O)C3O)cc2)[C]#[N+]Cc2ccc(CC(=O)NC3C(O)OC(CO)C(O)C3O)cc2)cc1)NC1C(O)OC(CO)C(O)C1O (stereo not shown) [^99mTc-4-CNMBDG]	% ID/g	6.46
O=C(NC1C(O)OC(CO)C(O)C1O)c1cccc(C[N+]#[C][99Tc+]([C]#[N+]Cc2cccc(C(=O)NC3C(O)OC(CO)C(O)C3O)c2)([C]#[N+]Cc2cccc(C(=O)NC3C(O)OC(CO)C(O)C3O)c2)([C]#[N+]Cc2cccc(C(=O)NC3C(O)OC(CO)C(O)C3O)c2)([C]#[N+]Cc2cccc(C(=O)NC3C(O)OC(CO)C(O)C3O)c2)[C]#[N+]Cc2cccc(C(=O)NC3C(O)OC(CO)C(O)C3O)c2)c1 (stereo not shown) [^99mTc-3-CNPEDG]	% ID/g	2.72

Note: attention shifts to another entry.
Q: Identify measured Tumor corresponding to O=C(NC1C(O)OC(CO)C(O)C1O)c1ccc(CC[N+]#[C][99Tc+]([C]#[N+]CCc2ccc(C(=O)NC3C(O)OC(CO)C(O)C3O)cc2)([C]#[N+]CCc2ccc(C(=O)NC3C(O)OC(CO)C(O)C3O)cc2)([C]#[N+]CCc2ccc(C(=O)NC3C(O)OC(CO)C(O)C3O)cc2)([C]#[N+]CCc2ccc(C(=O)NC3C(O)OC(CO)C(O)C3O)cc2)[C]#[N+]CCc2ccc(C(=O)NC3C(O)OC(CO)C(O)C3O)cc2)cc1 (stereo not shown) [^99mTc-4-CNPeDG]
A: 2.80

* * *

Recorded Kidney, one value per entry.
- System: S180 tumor
- Test name: Biodistribution in tumor-bearing mice
- Assay type: in vivo
- Protocol conditions: 30 min, i.v., mice bearing S180 tumor, n=5, mean ± SD
Write the answer as a number in % ID/g, unit excluded.

Compound	Result units	Numeric readout
O=C(NC1C(O)OC(CO)C(O)C1O)c1ccc(CC[N+]#[C][99Tc+]([C]#[N+]CCc2ccc(C(=O)NC3C(O)OC(CO)C(O)C3O)cc2)([C]#[N+]CCc2ccc(C(=O)NC3C(O)OC(CO)C(O)C3O)cc2)([C]#[N+]CCc2ccc(C(=O)NC3C(O)OC(CO)C(O)C3O)cc2)([C]#[N+]CCc2ccc(C(=O)NC3C(O)OC(CO)C(O)C3O)cc2)[C]#[N+]CCc2ccc(C(=O)NC3C(O)OC(CO)C(O)C3O)cc2)cc1 (stereo not shown) [^99mTc-4-CNPeDG]	% ID/g	7.32
O=C(Cc1ccc(C[N+]#[C][99Tc+]([C]#[N+]Cc2ccc(CC(=O)NC3C(O)OC(CO)C(O)C3O)cc2)([C]#[N+]Cc2ccc(CC(=O)NC3C(O)OC(CO)C(O)C3O)cc2)([C]#[N+]Cc2ccc(CC(=O)NC3C(O)OC(CO)C(O)C3O)cc2)([C]#[N+]Cc2ccc(CC(=O)NC3C(O)OC(CO)C(O)C3O)cc2)[C]#[N+]Cc2ccc(CC(=O)NC3C(O)OC(CO)C(O)C3O)cc2)cc1)NC1C(O)OC(CO)C(O)C1O (stereo not shown) [^99mTc-4-CNMBDG]	% ID/g	10.18
O=C(NC1C(O)OC(CO)C(O)C1O)c1cccc([N+]#[C][99Tc+]([C]#[N+]c2cccc(C(=O)NC3C(O)OC(CO)C(O)C3O)c2)([C]#[N+]c2cccc(C(=O)NC3C(O)OC(CO)C(O)C3O)c2)([C]#[N+]c2cccc(C(=O)NC3C(O)OC(CO)C(O)C3O)c2)([C]#[N+]c2cccc(C(=O)NC3C(O)OC(CO)C(O)C3O)c2)[C]#[N+]c2cccc(C(=O)NC3C(O)OC(CO)C(O)C3O)c2)c1 (stereo not shown) [^99mTc-3-CNBzDG]	% ID/g	6.69

Q: Report Kidney for O=C(NC1C(O)OC(CO)C(O)C1O)c1cccc(C[N+]#[C][99Tc+]([C]#[N+]Cc2cccc(C(=O)NC3C(O)OC(CO)C(O)C3O)c2)([C]#[N+]Cc2cccc(C(=O)NC3C(O)OC(CO)C(O)C3O)c2)([C]#[N+]Cc2cccc(C(=O)NC3C(O)OC(CO)C(O)C3O)c2)([C]#[N+]Cc2cccc(C(=O)NC3C(O)OC(CO)C(O)C3O)c2)[C]#[N+]Cc2cccc(C(=O)NC3C(O)OC(CO)C(O)C3O)c2)c1 (stereo not shown) [^99mTc-3-CNPEDG]
A: 9.69

* * *

- Test system: S180 tumor
- Test name: Biodistribution in tumor-bearing mice
- Format: in vivo
- Protocol conditions: 30 min, i.v., mice bearing S180 tumor, n=5, mean ± SD
Readout kind: Small intestine (% ID/g)
Please respond with the number in % ID/g and leave the unit unwritten.

Molecule	Test system	Result units	Small intestine
O=C(Cc1ccc(C[N+]#[C][99Tc+]([C]#[N+]Cc2ccc(CC(=O)NC3C(O)OC(CO)C(O)C3O)cc2)([C]#[N+]Cc2ccc(CC(=O)NC3C(O)OC(CO)C(O)C3O)cc2)([C]#[N+]Cc2ccc(CC(=O)NC3C(O)OC(CO)C(O)C3O)cc2)([C]#[N+]Cc2ccc(CC(=O)NC3C(O)OC(CO)C(O)C3O)cc2)[C]#[N+]Cc2ccc(CC(=O)NC3C(O)OC(CO)C(O)C3O)cc2)cc1)NC1C(O)OC(CO)C(O)C1O (stereo not shown) [^99mTc-4-CNMBDG]	S180 tumor	% ID/g	4.04
O=C(NC1C(O)OC(CO)C(O)C1O)c1cccc(C[N+]#[C][99Tc+]([C]#[N+]Cc2cccc(C(=O)NC3C(O)OC(CO)C(O)C3O)c2)([C]#[N+]Cc2cccc(C(=O)NC3C(O)OC(CO)C(O)C3O)c2)([C]#[N+]Cc2cccc(C(=O)NC3C(O)OC(CO)C(O)C3O)c2)([C]#[N+]Cc2cccc(C(=O)NC3C(O)OC(CO)C(O)C3O)c2)[C]#[N+]Cc2cccc(C(=O)NC3C(O)OC(CO)C(O)C3O)c2)c1 (stereo not shown) [^99mTc-3-CNPEDG]	S180 tumor	% ID/g	2.19
O=C(NC1C(O)OC(CO)C(O)C1O)c1ccc(CC[N+]#[C][99Tc+]([C]#[N+]CCc2ccc(C(=O)NC3C(O)OC(CO)C(O)C3O)cc2)([C]#[N+]CCc2ccc(C(=O)NC3C(O)OC(CO)C(O)C3O)cc2)([C]#[N+]CCc2ccc(C(=O)NC3C(O)OC(CO)C(O)C3O)cc2)([C]#[N+]CCc2ccc(C(=O)NC3C(O)OC(CO)C(O)C3O)cc2)[C]#[N+]CCc2ccc(C(=O)NC3C(O)OC(CO)C(O)C3O)cc2)cc1 (stereo not shown) [^99mTc-4-CNPeDG]	S180 tumor	% ID/g	1.38

Next up:
Q: Annotate the molecule O=C(NC1C(O)OC(CO)C(O)C1O)c1cccc([N+]#[C][99Tc+]([C]#[N+]c2cccc(C(=O)NC3C(O)OC(CO)C(O)C3O)c2)([C]#[N+]c2cccc(C(=O)NC3C(O)OC(CO)C(O)C3O)c2)([C]#[N+]c2cccc(C(=O)NC3C(O)OC(CO)C(O)C3O)c2)([C]#[N+]c2cccc(C(=O)NC3C(O)OC(CO)C(O)C3O)c2)[C]#[N+]c2cccc(C(=O)NC3C(O)OC(CO)C(O)C3O)c2)c1 (stereo not shown) [^99mTc-3-CNBzDG] with its measured Small intestine.
A: 2.05

* * *

- Tested on: S180 tumor
- Test name: Biodistribution in tumor-bearing mice
- Format: in vivo
- Protocol conditions: 30 min, i.v., mice bearing S180 tumor, n=5, mean ± SD
Readout kind: Bone (% ID/g)
Unit % ID/g implied. Number only.

Q: Consider the compound O=C(Cc1ccc(C[N+]#[C][99Tc+]([C]#[N+]Cc2ccc(CC(=O)NC3C(O)OC(CO)C(O)C3O)cc2)([C]#[N+]Cc2ccc(CC(=O)NC3C(O)OC(CO)C(O)C3O)cc2)([C]#[N+]Cc2ccc(CC(=O)NC3C(O)OC(CO)C(O)C3O)cc2)([C]#[N+]Cc2ccc(CC(=O)NC3C(O)OC(CO)C(O)C3O)cc2)[C]#[N+]Cc2ccc(CC(=O)NC3C(O)OC(CO)C(O)C3O)cc2)cc1)NC1C(O)OC(CO)C(O)C1O (stereo not shown) [^99mTc-4-CNMBDG] tested on S180 tumor; state its Bone.
A: 3.05
